Target: T1, human TL1A extracellular domain with N-terminal HIS and FLAG tag (human) (UniProt O95150)
T1 sequence: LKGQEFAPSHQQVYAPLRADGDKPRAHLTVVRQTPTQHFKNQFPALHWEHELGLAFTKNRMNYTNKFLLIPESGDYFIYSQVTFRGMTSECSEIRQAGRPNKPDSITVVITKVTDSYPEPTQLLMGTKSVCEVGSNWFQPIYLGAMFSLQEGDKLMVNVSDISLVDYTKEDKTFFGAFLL
Assay: cell-based or functional assay
endpoint: Fold improvement over 320-179, TL1A induced caspase potency assay in TF-1 cells (fold)

| binder | result-value |
| --- | --- |
| 320-201 (antibody, human IgG1, name in Kabat numbering, V domains shown, human IgG1, lambda) VH: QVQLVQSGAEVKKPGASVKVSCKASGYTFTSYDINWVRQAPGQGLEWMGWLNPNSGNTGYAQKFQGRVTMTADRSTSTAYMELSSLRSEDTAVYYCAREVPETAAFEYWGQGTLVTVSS VL: QSVLTQPPSVSGAPGQRVTISCTASSSDIGAGLGVHWYQQLPGTAPKLLIEGYYNRPSGVPDRFSGSKSGTSASLTITGLLPEDEGDYYCQSYDGTLSALFGGGTKLTVLG | 2 |
| 320-209 (antibody, human IgG1, name in Kabat numbering, V domains shown, human IgG1, lambda) VH: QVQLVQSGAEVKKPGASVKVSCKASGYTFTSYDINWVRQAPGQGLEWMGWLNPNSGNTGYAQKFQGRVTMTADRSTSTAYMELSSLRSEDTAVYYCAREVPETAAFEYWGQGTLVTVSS VL: QSVLTQPPSVSGAPGQRVTISCTSASSDIGAGLGVHWYQQLPGTAPKLLIEGYYNRPSGVPDRFSGSKSGTSASLTITGLLPEDEGDYYCQSYDGTLSALFGGGTKLTVLG | 1 |
| 320-463 (antibody, human IgG1, name in Kabat numbering, V domains shown, human IgG1, lambda) VH: QVQLVQSGAEVKKPGASVKVSCKASGYTFTSYDIAWVRQAPGQGLEWMGWLNPNSGNTGYAQKFQGRVTMTADRSTSTAYMELSSLRSEDTAVYYCAREVPETAAFEYWGQGTLVTVSS VL: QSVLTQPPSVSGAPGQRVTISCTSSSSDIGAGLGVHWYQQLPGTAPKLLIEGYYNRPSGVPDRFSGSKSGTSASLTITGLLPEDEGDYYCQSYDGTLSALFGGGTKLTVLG | 3 |
